Please respond with reported koff for every item in the list.
# target_of_assay: T1, recombinant His-labeled hCTLA-4 ECD protein (human, UniProt P16410 36-161)
# T1 construct: extracellular domain; also called human CTLA-4 ECD; not shown: His label
# T1 sequence (looked up): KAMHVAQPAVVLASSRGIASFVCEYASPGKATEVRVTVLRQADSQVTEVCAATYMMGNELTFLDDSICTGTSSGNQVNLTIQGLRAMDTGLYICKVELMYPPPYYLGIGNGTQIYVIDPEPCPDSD
# test: SPR Biacore T200, antibody captured by anti-human Fc, 1:1 model
# Method: Anti-human Fc IgG was fixed on flow cell 1 and 2. HBS-EP+ (10 mmol/L HEPES, 150 mmol/L NaCl, 3 mM EDTA, 0.05% P20, pH 7.4) was used as the running buffer, and anti-human Fc IgG was fixed using the fixing wizard template. The flow cells 1 and 2 connected in series with S CM5 sensor chip were activated with freshly mixed 50 mmol/L NHS and 200 mmol/L EDC. Anti-human Fc IgG was diluted to […] with 10 mmol/L NaAC (pH 4.5) and injected into activated flow cells 1 and 2. […]
Note: state the figure and append the unit.

binder	koff
92C8B6 fully human CTLA-4 antibody (human IgG1, kappa) (antibody, V domains shown, also called mAb42; mAb042) VH: QVQLVESGGGVVQPGRSLRLSCAASGFTFSNFGMHWVRQAPGKGLEWVAVIWYDGSNKYYADSVKGRFTISRDNSKNTLFLQMNGLRAEDTAVYYCAKGGILMAGTLDYWGQGTLVTVSS VL: DIQMTQSPSSLSASVGDRVTITCRASQSVSTYLNWYQQKPGKAPKLLIYAASSFQSGVPSRFSGSGSGTDFTLTISSLQPEDFATYFCQQSYSTPFTFGPGTKVDIK	0.00187 s⁻¹
97A8D1 fully human CTLA-4 antibody (human IgG1, kappa) (antibody, V domains shown, also called mAb49; mAb049) VH: QVQLVESGGGVVQPGRSLRLSCVASGFTFNNYGMNWVRQAPGKGLEWVAVIWYGGRNKFYADSVKGRFTISRDNSKNTLYLEMNSLRAEDTAVYYCARADWGGWFDPWGQGTLVTVSS VL: EIVLTQSPGTLSLSPGERATLSCRASQSVSSTYLAWYQQKPGQAPRLLIHGAFSRATGIPDRFSGSGSGPDFTLTISRLEPEDFAVYYCQQYGTSPFTFGPGTKVDIK	0.00087 s⁻¹
31C12F3 fully human CTLA-4 antibody (human IgG1, kappa) (antibody, V domains shown, also called mAb010) VH: QVQLVESGGGVVQPGRSLILSCAASGFTFSSYGMHWVRQAPGKGLEWVAVVWYDGSNKYYADSVKGRFTISRDNSKNTLYLQMSSLRAEDTAVYYCARGGIVVPGLFEYWGQGSLVTVSS VL: DIQMTQSPSSLSASVGDRVAITCRTSQSISNLLNWYQQKPGKAPELLIYAPSSFQSGVPSRFRGSGSGTDFTLTISSLQPEDFATYYCQQSYSTPFTFGPGTKVDIK	0.00118 s⁻¹

As a next step, examine the binder that follows.
Using the record for 40C4C6 fully human CTLA-4 antibody (human IgG1, kappa) (antibody, V domains shown, also called mAb09; mAb009) VH: QVQLVESGGGVVQPGRSLRLSCAASGFTFSSYGMHWVRQAPGKGLEWVAVIWYDGRNKYYADSVKGRFTISRDNSKNTLYLQMNSLRAEDTAVYYCARASGSYSYYFDYWGQGTLVTVSS VL: DIQMTQSPSSLSASVGGRVTITCRASQSISSFLNWYQHELGKAPKLLIYGASSLQSGVPSRFSGSGSGTDFTLTISSLQPEDFATYYCQQTYSTPFTFGPGTKVDIK , report its koff.
0.0017 s⁻¹
